Molecular target: BRD4 BD2 (Homo sapiens, UniProt O60885, Y97A)
Construct: BRD4 (1-477) (Y97A) and (Y390A); made in house; host or cells: E. coli (pET15b vector)
Test: BRD4 BD2 TR-FRET competition assay
Format: binding
Conditions: single mutant tandem BRD4, read-out: pIC50 in the BRD4 BD2 assay (converted)
MEASUREMENT_NAME: IC50

// known answers, use as guide
CNC(=O)c1cc(C(=O)NCCCOC)cn(Cc2ccccc2)c1=O | 100 to 1000 nM
CNC(=O)c1cc(C(=O)NCCc2cn[nH]c2)cn(Cc2cccc3[nH]ccc23)c1=O | ≤ 100 nM
CNC(=O)c1cc(C(=O)NCCCO)cn(Cc2ccccc2)c1=O | 100 to 1000 nM
CNC(=O)c1cc(C(=O)NCCc2cn[nH]c2)cn(Cc2ccccc2)c1=O | ≤ 100 nM
CNC(=O)c1cc(C(=O)NCCc2ccccn2)cn(Cc2ccccc2)c1=O | 100 to 1000 nM

Give IC50 (BRD4 BD2 (Homo sapiens, UniProt O60885, Y97A)) of the following molecule: "CNC(=O)c1cc(C(=O)NCCc2c[nH]cn2)cn(Cc2cccc3[nH]ccc23)c1=O" ≤ 100 nM

Give IC50 (BRD4 BD2 (Homo sapiens, UniProt O60885, Y97A)) of the following molecule: "CCNC(=O)c1cc(C(=O)NC)c(=O)n(Cc2cccc(OC)c2)c1" 100 to 1000 nM

Give IC50 (BRD4 BD2 (Homo sapiens, UniProt O60885, Y97A)) of the following molecule: CNC(=O)c1cc(C(=O)NCCC(C)O)cn(Cc2ccccc2)c1=O (stereo not shown) 100 to 1000 nM

Give IC50 (BRD4 BD2 (Homo sapiens, UniProt O60885, Y97A)) of the following molecule: "CNC(=O)c1cc(C(=O)NCCCN)cn(Cc2ccccc2)c1=O" 100 to 1000 nM

Give IC50 (BRD4 BD2 (Homo sapiens, UniProt O60885, Y97A)) of the following molecule: "CNC(=O)c1cc(C(=O)NCCc2ccn[nH]2)cn(Cc2ccccc2)c1=O" 100 to 1000 nM

Give IC50 (BRD4 BD2 (Homo sapiens, UniProt O60885, Y97A)) of the following molecule: "CNC(=O)c1cc(C(=O)NCCCC#N)cn(Cc2ccccc2)c1=O" 100 to 1000 nM

Give IC50 (BRD4 BD2 (Homo sapiens, UniProt O60885, Y97A)) of the following molecule: "CNC(=O)c1cc(C(=O)NCCc2c[nH]cn2)cn(Cc2cccc(OCCO)c2)c1=O" 100 to 1000 nM

Give IC50 (BRD4 BD2 (Homo sapiens, UniProt O60885, Y97A)) of the following molecule: "CNC(=O)c1cc(C(=O)NCCc2cccnc2)cn(Cc2ccccc2)c1=O" 100 to 1000 nM

Give IC50 (BRD4 BD2 (Homo sapiens, UniProt O60885, Y97A)) of the following molecule: "CCCNC(=O)c1cc(C(=O)NC)c(=O)n(Cc2ccccc2)c1" 100 to 1000 nM

Give IC50 (BRD4 BD2 (Homo sapiens, UniProt O60885, Y97A)) of the following molecule: "CNC(=O)c1cc(C(=O)NCCc2cnn(C)c2)cn(Cc2ccccc2)c1=O" 100 to 1000 nM

Give IC50 (BRD4 BD2 (Homo sapiens, UniProt O60885, Y97A)) of the following molecule: "CNC(=O)c1cc(C(=O)NCCc2cn[nH]c2)cn(Cc2cccc(OC)c2)c1=O" 100 to 1000 nM

Give IC50 (BRD4 BD2 (Homo sapiens, UniProt O60885, Y97A)) of the following molecule: "CNC(=O)c1cc(C(=O)NCCc2cn[nH]c2)cn(Cc2cccc(C)c2F)c1=O" 100 to 1000 nM

Give IC50 (BRD4 BD2 (Homo sapiens, UniProt O60885, Y97A)) of the following molecule: CNC(=O)c1cc(C(=O)NCCC(C)N(C)C)cn(Cc2ccccc2)c1=O (stereo not shown) 100 to 1000 nM

Data provenance is patent US10471050B2.
